- Tested on: crayfish Procambarus clarkii
- condition-notes: Table 1, no footnote; P. clarkii, injected into haemocoele, paralysis at 15 min
Answer each item with its documented Crayfish Acute Paralytic Dose PD50.
# number only, unit µg dropped from output

In: Complete the entry with Crayfish Acute Paralytic Dose PD50 for c1cncc(-c2ccncc2)c1 [3,4′-BP, 3,4′-bipyidyl]
Out: 61

In: Complete the entry with Crayfish Acute Paralytic Dose PD50 for c1cncc([C@@H]2CCCCN2)c1 [Anabasine]
Out: 3.9

In: Complete the entry with Crayfish Acute Paralytic Dose PD50 for c1cncc(-c2cccnc2)c1 [3,3′-BP, 3,3′-bipyridyl]
Out: 17

###

Answer each item with its documented Barnacle Larvae Settlement % Inhib.
- Test system: barnacle (Balanus amphitrite) cyprid larvae
- measurement-protocol: Barnacle cyprid larval 24 hour settlement inhibition assay
- Format: in vivo
- condition-notes: single concentration, three separate experiments; spread in parentheses

In: Complete the entry with Barnacle Larvae Settlement % Inhib for Cc1ncccc1-c1ccccn1 [2′-Me2,3′-BP, 2′-Me2,3′-bipyridyl]
Out: 0 (33) %

In: Complete the entry with Barnacle Larvae Settlement % Inhib for Cc1cncc(-c2ccccn2)c1 [5′-Me2,3′-BP, 5′-Methyl-2,3′-bipyridyl]
Out: 54 (28) %

In: Complete the entry with Barnacle Larvae Settlement % Inhib for Cc1cccnc1-c1cccnc1 [3-Me2,3′-BP, 3-Methyl-2,3′-bipyridyl]
Out: 34 (13) %

In: Complete the entry with Barnacle Larvae Settlement % Inhib for Cc1ccncc1-c1ccccn1 [4′-Me2,3′-BP, 4′-Methyl-2,3′-bipyridyl]
Out: 90 (10) %

In: Complete the entry with Barnacle Larvae Settlement % Inhib for Cc1ccnc(-c2cccnc2)c1 [4-Me2,3′-BP, 4-Me2,3′-bipyridyl]
Out: 83 (4) %

In: Complete the entry with Barnacle Larvae Settlement % Inhib for Cc1cccc(-c2cccnc2)n1 [6-Me2,3′-BP, 6-methyl-2,3′-bipyridyl]
Out: 16 (16) %

In: Complete the entry with Barnacle Larvae Settlement % Inhib for Cc1ccc(-c2ccccn2)cn1 [6′-Me2,3′-BP, 6′-Methyl-2,3′-bipyridyl]
Out: 30 (16) %

In: Complete the entry with Barnacle Larvae Settlement % Inhib for c1ccc(-c2cccnc2)nc1 [2,3′-BP, 2,3′-Bipyridyl]
Out: 54 (11) %

In: Complete the entry with Barnacle Larvae Settlement % Inhib for Cc1ccc(-c2cccnc2)nc1 [5-Me2,3′-BP, 5-methyl-2,3′-bipyridyl]
Out: 95 (5) %
